The reported measurements were obtained from the RNAGym collection of RNA variant scans (doi:10.7554/elife.80360).

B1: HDV Ribozyme (parent)
chain: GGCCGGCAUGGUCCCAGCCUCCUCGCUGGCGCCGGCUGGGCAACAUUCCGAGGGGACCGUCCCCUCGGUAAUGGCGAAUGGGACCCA

# Variants of: B1
# test.summary: self-cleavage, relative activity (ratio to wild type); higher = more cleavage; co-transcriptional

- mutation.label: "G1C G6A"
  self-cleavage: 0.0554
- mutation.label: "C26A G67C"
  self-cleavage: 0.985
- mutation.label: "C48A G53C"
  self-cleavage: 1.2
- mutation.label: "G1C C18A"
  self-cleavage: 0.123
- mutation.label: "A42U G67A"
  self-cleavage: 0.47
- mutation.label: "A51C U72A"
  self-cleavage: 0.609
- mutation.label: "G6C A77G"
  self-cleavage: 0.0791
- mutation.label: "A42C A77U"
  self-cleavage: 0.369
- mutation.label: "C4U G10U"
  self-cleavage: 0.163
- mutation.label: "A8G G40A"
  self-cleavage: 1.08
- mutation.label: "G25C A78G"
  self-cleavage: 0
- mutation.label: "U23G A70U"
  self-cleavage: 0.492
- mutation.label: "A8C C85U"
  self-cleavage: 0.886
- mutation.label: "U47G A51G"
  self-cleavage: 0.906
- mutation.label: "G67A A71C"
  self-cleavage: 0.752
